B1: TPR t1 (parent)
chain: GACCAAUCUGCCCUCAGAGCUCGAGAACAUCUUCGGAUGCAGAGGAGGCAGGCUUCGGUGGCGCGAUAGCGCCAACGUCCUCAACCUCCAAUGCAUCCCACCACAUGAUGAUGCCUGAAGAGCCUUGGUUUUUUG

Variants of: B1
protocol_summary: polymerase ribozyme fitness, log enrichment relative to wild type (log ratio); higher = more active; in vitro selection for triplet polymerase activity
// rule not met strictly below -3 in polymerase ribozyme fitness (log ratio); rule met otherwise

Asked: Could you please find out whether G63U U92A has polymerase ribozyme fitness (log ratio) that meets -3 or exceeds it?
Given back: rule not met

Asked: Evaluate G113U U126A : polymerase ribozyme fitness (log ratio) at minimum -3?
Given back: rule not met

Asked: Decide: polymerase ribozyme fitness (log ratio) of G10A G63U C86U G120A >= -3?
Given back: rule met

Asked: // inclusive: polymerase ribozyme fitness (log ratio) at least -3? input: C22A A29G
Given back: rule not met

Asked: Determine whether measured polymerase ribozyme fitness (log ratio) meets or exceeds -3 for G10A C15G G61U
Given back: rule not met

Asked: In plain terms: is recorded polymerase ribozyme fitness (log ratio) at least -3 for A5U A41G U55A C70G ?
Given back: rule not met

Asked: Does the variant C4U A43U C56G C89U U112C have recorded polymerase ribozyme fitness (log ratio) that is -3 or more?
Given back: rule met

Asked: Answer whether polymerase ribozyme fitness (log ratio) of G113U U129A is greater than or equal to -3.
Given back: rule not met

Asked: Determine whether this variant has polymerase ribozyme fitness (log ratio) no lower than -3: A5U C70U
Given back: rule met

Asked: Determine whether this variant has polymerase ribozyme fitness (log ratio) no lower than -3: G10C C15A G69U U112G
Given back: rule met

Asked: Is it the case that C56G C64A U106C C114U has polymerase ribozyme fitness (log ratio) reaching or exceeding -3?
Given back: rule not met

Asked: In plain terms: is recorded polymerase ribozyme fitness (log ratio) at least -3 for C3U G44C G60A ?
Given back: rule met

Asked: // inclusive: polymerase ribozyme fitness (log ratio) at least -3? input: C8G G120A
Given back: rule met

Asked: Threshold query (polymerase ribozyme fitness (log ratio) >= -3) on A43U A46U A105U C124G
Given back: rule not met

Asked: Dear colleague, could you confirm whether U7C C11A C22A has polymerase ribozyme fitness (log ratio) at or above -3?
Given back: rule not met

Asked: polymerase ribozyme fitness (log ratio) >= -3 for A18U A26G C56U C123G ?
Given back: rule met

Asked: hey, is polymerase ribozyme fitness (log ratio) for this one >= -3? C53U G61U U78C
Given back: rule met

Asked: Check if polymerase ribozyme fitness (log ratio) >= -3 (inclusive). Item: C4G C11G C40A G60A C101G U106C
Given back: rule not met

Asked: Is polymerase ribozyme fitness (log ratio) for C20A A29U C62U A119U U129G at or above -3?
Given back: rule not met

Asked: Quick check, polymerase ribozyme fitness (log ratio) >= -3? G77A A95G G120A
Given back: rule met

Asked: Decide: polymerase ribozyme fitness (log ratio) of G42U G93C U133A >= -3?
Given back: rule not met

Asked: I'd appreciate it if you could say whether U9C C11U G61A C88G has polymerase ribozyme fitness (log ratio) at least equal to -3.
Given back: rule met

Asked: # bool: polymerase ribozyme fitness (log ratio) of C11G G110U U125A >= -3
Given back: rule met

Asked: Determine whether this variant has polymerase ribozyme fitness (log ratio) no lower than -3: U33A G58A
Given back: rule not met

Asked: Is it the case that U7A G69U C98U has polymerase ribozyme fitness (log ratio) reaching or exceeding -3?
Given back: rule met

Asked: Given the entry C15G U112C , answer whether its polymerase ribozyme fitness (log ratio) meets or surpasses -3.
Given back: rule met

Asked: Determine whether this variant has polymerase ribozyme fitness (log ratio) no lower than -3: U55C U130G
Given back: rule met

Asked: Exam item: decide whether the reported polymerase ribozyme fitness (log ratio) for A16G C49A C88A C99A C102U C114U is at least -3.
Given back: rule not met

Asked: Please tell me: is the variant A18G C22G C104A at or over -3 in terms of polymerase ribozyme fitness (log ratio)?
Given back: rule not met

Asked: Could you verify whether the entry U87C C89G shows polymerase ribozyme fitness (log ratio) of no less than -3?
Given back: rule met

Asked: Check if polymerase ribozyme fitness (log ratio) >= -3 (inclusive). Item: G47A G113U
Given back: rule met

Asked: Quick check, polymerase ribozyme fitness (log ratio) >= -3? A66G U116C
Given back: rule met

Asked: Item G10A C13U U38G C56U C82G with polymerase ribozyme fitness (log ratio) of -3 or above?
Given back: rule met

Asked: Please check the record G42C G57A C64A C85A G113U and state if its polymerase ribozyme fitness (log ratio) is at or above -3.
Given back: rule not met

Asked: Is polymerase ribozyme fitness (log ratio) at least -3? Consider C13G A66U C79U C102A
Given back: rule not met

Asked: Given the entry G60U C89A A118G , answer whether its polymerase ribozyme fitness (log ratio) meets or surpasses -3.
Given back: rule met

Asked: API: above_or_equal(metric=polymerase ribozyme fitness (log ratio), cutoff=-3) for item G52A A95C G113C
Given back: rule not met

Asked: Does the variant A37C A83U have recorded polymerase ribozyme fitness (log ratio) that is -3 or more?
Given back: rule met

Asked: Given the entry C13U A121U , answer whether its polymerase ribozyme fitness (log ratio) meets or surpasses -3.
Given back: rule met

Asked: Quick check: does A24U C56U have polymerase ribozyme fitness (log ratio) greater than or equal to -3?
Given back: rule not met

Asked: Please check the record G63C A66U G77C A91C C94A and state if its polymerase ribozyme fitness (log ratio) is at or above -3.
Given back: rule not met

Asked: Record A41C A105G ; criterion: polymerase ribozyme fitness (log ratio) no lower than -3. Met?
Given back: rule not met

Asked: Is polymerase ribozyme fitness (log ratio) at least -3? Consider U33G C34G A103U
Given back: rule not met

Asked: Confirm if polymerase ribozyme fitness (log ratio) reported for the variant A26G G44C is -3 or above.
Given back: rule met

Asked: Check the entry C62G G93C : does polymerase ribozyme fitness (log ratio) equal or exceed -3?
Given back: rule not met

Asked: Kindly determine if polymerase ribozyme fitness (log ratio) recorded for G60A C114U is above or exactly -3.
Given back: rule met

Asked: Check the entry C20U U38G C72U C102U : does polymerase ribozyme fitness (log ratio) equal or exceed -3?
Given back: rule not met

Asked: Given C12A C85G , state whether its polymerase ribozyme fitness (log ratio) is at least -3.
Given back: rule met

Asked: Does the variant C8U C72G U96G have recorded polymerase ribozyme fitness (log ratio) that is -3 or more?
Given back: rule met

Asked: Can U38A C89G C114A C123A U131G be said to have polymerase ribozyme fitness (log ratio) at or above -3?
Given back: rule not met

Asked: Is the recorded value of polymerase ribozyme fitness (log ratio) equal to or greater than -3 for this variant? C12G C20U C72U G117U
Given back: rule met

Asked: Say whether C3U G63C U78C shows polymerase ribozyme fitness (log ratio) of -3 or more.
Given back: rule not met

Asked: Please tell me: is the variant G39C G71C C86U at or over -3 in terms of polymerase ribozyme fitness (log ratio)?
Given back: rule met

Asked: Dear colleague, could you confirm whether U33G G69A C70A A111U has polymerase ribozyme fitness (log ratio) at or above -3?
Given back: rule not met

Asked: Item C8U U38G G61U G93A with polymerase ribozyme fitness (log ratio) of -3 or above?
Given back: rule not met

Asked: Reported polymerase ribozyme fitness (log ratio) at or above -3? C22U C56A C72A A83C U96A
Given back: rule not met

Asked: Reported polymerase ribozyme fitness (log ratio) at or above -3? C20G U55C G57A A90G
Given back: rule not met

Asked: Hi, just wondering whether G57A C70A shows polymerase ribozyme fitness (log ratio) of -3 or higher.
Given back: rule not met

Asked: Quick check, polymerase ribozyme fitness (log ratio) >= -3? G25U G47U
Given back: rule not met

Asked: Threshold query (polymerase ribozyme fitness (log ratio) >= -3) on A6G A18G U129A U133A G135U
Given back: rule not met

Asked: Hello, I need to know if C4G U14A C73G G120A has measured polymerase ribozyme fitness (log ratio) not below -3. Thanks!
Given back: rule not met

Asked: Determine whether measured polymerase ribozyme fitness (log ratio) meets or exceeds -3 for A6G G10U A43C G71A
Given back: rule not met

Asked: Can G61U C94U be said to have polymerase ribozyme fitness (log ratio) at or above -3?
Given back: rule met

Asked: Decide: is the reported value of polymerase ribozyme fitness (log ratio) for G25U C53A G69U G107A U116G C123U equal to or greater than -3?
Given back: rule not met

Asked: Confirm if polymerase ribozyme fitness (log ratio) reported for the variant U9A G71U U87A C89A U112G is -3 or above.
Given back: rule not met

Asked: Assess whether reported polymerase ribozyme fitness (log ratio) for U7C G107A U109A sits at -3 or higher.
Given back: rule not met

Asked: Could you verify whether the entry U21G C53U C64U C79A shows polymerase ribozyme fitness (log ratio) of no less than -3?
Given back: rule not met

Asked: In plain terms: is recorded polymerase ribozyme fitness (log ratio) at least -3 for C73A C97U ?
Given back: rule met

Asked: Is the recorded value of polymerase ribozyme fitness (log ratio) equal to or greater than -3 for this variant? C4U G17U G48A U54G G61A G77U U130C
Given back: rule not met

Asked: Is polymerase ribozyme fitness (log ratio) for U21A C76U at or above -3?
Given back: rule met

Asked: Determine whether measured polymerase ribozyme fitness (log ratio) meets or exceeds -3 for C34G C73A
Given back: rule not met

Asked: Check the entry G36U C53U G61A U96G : does polymerase ribozyme fitness (log ratio) equal or exceed -3?
Given back: rule met

Asked: Does the reported polymerase ribozyme fitness (log ratio) for C28U G71C U87G fall at or above the -3 mark?
Given back: rule not met

Asked: Does G36A have a reported polymerase ribozyme fitness (log ratio) of at least -3?
Given back: rule met

Asked: Assess whether reported polymerase ribozyme fitness (log ratio) for C11G A27U G47C A83U sits at -3 or higher.
Given back: rule not met

Asked: Quick check, polymerase ribozyme fitness (log ratio) >= -3? A24U A119G
Given back: rule not met

Asked: Hi team, for C56A C99U , is the recorded polymerase ribozyme fitness (log ratio) at or above -3?
Given back: rule met

Asked: Kindly determine if polymerase ribozyme fitness (log ratio) recorded for C89U A108G C114U is above or exactly -3.
Given back: rule not met

Asked: Please indicate if the recorded polymerase ribozyme fitness (log ratio) for G47A A83U meets or exceeds -3.
Given back: rule met

Asked: API: above_or_equal(metric=polymerase ribozyme fitness (log ratio), cutoff=-3) for item G47A A121U
Given back: rule met

Asked: Has C53A G60A C94A G120A a recorded polymerase ribozyme fitness (log ratio) greater than or equal to -3?
Given back: rule met

Asked: Does A43G C70A have a reported polymerase ribozyme fitness (log ratio) of at least -3?
Given back: rule not met

Asked: Answer whether polymerase ribozyme fitness (log ratio) of G10U A24G G58C C79U is greater than or equal to -3.
Given back: rule met

Asked: Is polymerase ribozyme fitness (log ratio) at least -3? Consider G47A C53U U54C
Given back: rule met

Asked: Please tell me: is the variant C72G A119U C124G at or over -3 in terms of polymerase ribozyme fitness (log ratio)?
Given back: rule met

Asked: Could you tell me if the measured polymerase ribozyme fitness (log ratio) of G44U C94G reaches -3 or more?
Given back: rule not met

Asked: # bool: polymerase ribozyme fitness (log ratio) of C20G C76U >= -3
Given back: rule not met
